Answer each item with its documented pEC50.
- System: Plasmodium falciparum
- Experiment Notes: NOVARTIS: Inhibition of Plasmodium falciparum 3D7 (drug-susceptible) proliferation in erythrocyte-based infection assay
- Format: functional, organism-based
- Condition Parameters: Plasmodium falciparum, 3D7
# log scale: pEC50 equals minus log10 of the concentration in mol/L

Exercise: State the recorded pEC50 for this entry: COc1ccc(C(=O)C(C#N)=CNC2CCN(Cc3ccccc3)CC2)cc1
Key: 6.75

Exercise: Continue with O=[N+]([O-])c1ccc(Nc2nc(NN=Cc3ccccc3I)nc(Nc3ccccc3)n2)cc1
Key: 6.07

Exercise: And the next one, Cc1sc2sc(-c3ccccc3)c(N)[n+]2c1C ?
Key: 5.98

###

- Experiment Notes: NOVARTIS: Cytotoxicity against human hepatocellular carcinoma cell line (Huh7)
- Format: toxicity, cell-based, Huh-7
- Condition Parameters: Huh7 cells (hepatocellular carcinoma cell line)
Assay Readout: CC50

Exercise: Tell me the measured CC50 of COc1cc(NC(C)CCCN(Cc2ccccc2OC)C(=O)Nc2cccc(F)c2)c2ncccc2c1 (stereo unspecified) , please.
Key: > 10 µM

Exercise: Next record, please: CCOc1ccc(-c2nonc2NC(=O)c2ccco2)cc1OCC
Key: > 100 µM

Exercise: Another compound: CN(C)CCCNc1cc(-c2ccccc2)nc2ccccc12
Key: 18.6 µM

Exercise: And for OCC1CCCN1c1nccnc1-c1ccccc1Oc1ccccc1 (stereo unspecified) ?
Key: > 10 µM

Exercise: Next: NCCCCCCNc1ccnc2cc(Cl)ccc12
Key: > 10 µM

Exercise: Queued: CC(=O)c1cccc(NC(=O)NC2CC3CCCC(C2)N3CCc2ccccc2)c1 (stereo unspecified)
Key: > 10 µM

Exercise: Would you mind doing CN(C)CC(C)(C)CNCc1cc(-c2ccnc3cc(Cl)ccc23)ccc1O as well?
Key: > 10 µM

Exercise: Same read-out for CCOC(=O)C1=C(C)NC2=C(C(=O)C(C(=O)OC)C(C)C2)C1c1cc(Br)c(OC)c(OCC)c1 (stereo unspecified) ?
Key: > 100 µM

Exercise: // same read-out, input: Cc1cccc(NC(=S)NC2CC3CCCC(C2)N3CCc2ccccc2)c1 (stereo unspecified)
Key: 30.7 µM

Exercise: Entry Cc1ccccc1Nc1nc(NCc2ccco2)c2ccccc2n1 please
Key: 15.6 µM

Exercise: Then what about the compound S=C(Nc1ccccc1)N1CCCN(c2nc3ccc(Cl)cc3s2)CC1 ?
Key: > 86.9 µM

###

Assignment: determine reported pEC50 for the given molecules.
- Test system: Plasmodium falciparum
- Experiment Notes: NOVARTIS: Inhibition of Plasmodium falciparum 3D7 (drug-susceptible) proliferation in erythrocyte-based infection assay
- Format: functional, organism-based
- Condition Parameters: Plasmodium falciparum, 3D7
Friendly reminder that pEC50 comes from taking -log10 of the concentration in mol/L.

Exercise: Requested read-out: pEC50. Entry: COc1ccccc1NC(=O)CSc1nc2cccnc2n1-c1ccccc1OC
Key: 6.08

Exercise: What do you get for Oc1ccc(-c2ccnc3cc(Cl)ccc23)cc1CNCCN1CCOCC1 ?
Key: 6.01

Exercise: Now the same for Cc1ccc(C)c(Oc2c(C(F)(F)F)oc3c(CN4CCN(C)CC4)c(O)ccc3c2=O)c1
Key: 6.08

###

Exercise: state measured pEC50 for each of the compounds provided.
- System: Plasmodium falciparum
- Experiment Notes: NOVARTIS: Inhibition of Plasmodium falciparum 3D7 (drug-susceptible) proliferation in erythrocyte-based infection assay
- Format: functional, organism-based
- Condition Parameters: Plasmodium falciparum, 3D7
Formally, pEC50 is defined as -log10 of the concentration c, with c in mol/L.

Exercise: Given CN(C)c1ccc(/C=C2/SC(=Nc3ccccc3)NC2=O)cc1 , state its recorded pEC50.
Key: 6.96

Exercise: Input COC(=O)c1c(NC(=O)c2ccc(S(=O)(=O)N3CCOCC3)cc2)sc2c1CCN(C(C)=O)C2
Key: 5.06

Exercise: And for CCc1nc2nc(C)cc(NCCc3cccc(C)c3)n2n1 ?
Key: 6.48

Exercise: Same question for Clc1ccccc1-c1nc([P+](c2ccccc2)(c2ccccc2)c2ccccc2)c(N2CCOCC2)o1 please.
Key: 6.46

Exercise: What would you report for CCOC(=O)c1c(C)oc2c1C(=O)c1ccccc1C2=O ?
Key: 5.71
